target: T1, Recombinant human EGFR protein (Active) (ab155639) (human, UniProt P00533 25-645, labelled with RED-tris-NTA 2nd Generation dye); assay: MST; RED-tris-NTA-labelled EGFR 25 nM, ligand in a 16-step 1:1 dilution series in PBS-T, 30 min at room temperature; assay concentration of the ligand 463 μM; settings: both partners purified
T1 construct: epidermal growth factor receptor (EGFR, ErbB-1), human, recombinant; also called EGF receptor; ErbB-1; source: bought: Abcam (ab155639), recombinant
ASSAY ENDPOINT: Kd (µM)
# value in µM; strip the unit string

Task: Looking for the measured Kd of HDGYCLHDGVCMY (EGF, human, residues 10-22; numbers count on: the mature protein; source: synthetic peptide (SPPS, Fmoc; crude, without preparative HPLC)) [EGF fragment 10–22 (HDGYCLHDGVCMY)] , can you help?
Output: 21.2
